Value source: ChEMBL document CHEMBL4321815

# MEASUREMENT DESCRIPTION: AUC in mouse at 2.5 mg/kg, po
# Assay type: ADME, organism-based
# STUDY CONDITIONS: in vivo
READOUT LABEL: AUC (ng·h/mL)
# number only, unit ng·h/mL dropped from output

Ask | I'd like to know its AUC. The molecule in question is C[C@H]1SC(N)=N[C@](C)(c2cc(NC(=O)c3cnc(OCF)cn3)ccc2F)[C@H]1F
Reply | 596

====

# MEASUREMENT DESCRIPTION: Oral bioavailability in dog at 2.5 mg/kg
# Assay type: ADME, organism-based, Canis lupus familiaris
# STUDY CONDITIONS: in vivo
READOUT LABEL: bioavailability
Report field: quantity (unit follows the number).

Ask | I'd like to know its bioavailability. The molecule in question is C[C@H]1SC(N)=N[C@](C)(c2cc(NC(=O)c3cnc(OCF)cn3)ccc2F)[C@H]1F
Reply | 95%
